Experiment: Cytotoxicity against human Akata cells
Format: cell-based
Settings: Akata cells
recorded.metric: CC50

query: CC50 for Nc1nc2c(ncn2COCCO)c(=O)[nH]1 ?
result: > 100 µM

###

Test system: Human betaherpesvirus 5
Test: Antiviral activity against Human cytomegalovirus Towne infected in human foreskin fibroblast cells by plaque reduction assay
Type: functional, organism-based
Settings: Human betaherpesvirus 5, Towne
Recorded EC50 by entry

{"columns": ["compound", "system.under.test", "recorded.metric", "reported.measurement"],
 "data": [
  ["Nc1nc2c(ncn2COC(CO)CO)c(=O)[nH]1 [GANCICLOVIR]", "Human betaherpesvirus 5", "EC50", "1.2 µM"]
]}

query: EC50 for Nc1ncnc2c1ncn2/C=C1/C[C@H]1[C@@H](O)CO ?
result: > 100 µM

query: EC50 for Nc1ncnc2c1ncn2/C=C1\C[C@@H]1[C@@H](O)CO ?
result: > 100 µM

query: EC50 for Nc1ncnc2c1ncn2/C=C1/C[C@@H]1[C@@H](O)CO ?
result: > 100 µM

###

System: Murid betaherpesvirus 1
Assay: Antiviral activity against Murine cytomegalovirus infected in mouse embryonic fibroblast cells by plaque reduction assay
Format: functional, organism-based
Settings: Murid betaherpesvirus 1, Fibroblast
recorded.metric: pEC50
Bear in mind: pEC50 is minus log10 of a mol/L concentration; give just that figure.

{"columns": ["compound", "reported.measurement"],
 "data": [
  ["Nc1nc2c(ncn2/C=C2/C[C@H]2[C@@H](O)CO)c(=O)[nH]1", 4.95]
]}

Continue with the compound presented below.
query: pEC50 for Nc1nc2c(ncn2COC(CO)CO)c(=O)[nH]1 [GANCICLOVIR] ?
result: 5.26

###

Test: Cytotoxicity against human Akata cells
Format: cell-based
Conditions: akata
Recorded CC50 by entry
Numeric answer only, unit µM assumed.

Worked examples follow.
{"columns": ["smiles.data", "reported.measurement"],
 "data": [
  ["Nc1ncnc2c1ncn2/C=C1/C[C@@H]1[C@H](O)CO", 50.5],
  ["Nc1ncnc2c1ncn2/C=C1/C[C@H]1[C@@H](O)CO", 61.5],
  ["Nc1ncnc2c1ncn2/C=C1/C[C@@H]1[C@@H](O)CO", 55]
]}

query: CC50 for Nc1nc2c(ncn2/C=C2/C[C@@H]2[C@@H](O)CO)c(=O)[nH]1 ?
result: 56

query: CC50 for Nc1nc2c(ncn2/C=C2\C[C@H]2[C@H](O)CO)c(=O)[nH]1 ?
result: 86.6

###

Experiment: Cytotoxicity against human Akata cells
Format: cell-based
Conditions: akata
Recorded CC50 by entry
Numeric answer only, unit µM assumed.

{"columns": ["smiles.data", "recorded.metric", "u", "reported.measurement"],
 "data": [
  ["Nc1ncnc2c1ncn2/C=C1\\C[C@@H]1[C@H](O)CO", "CC50", "µM", 57],
  ["Nc1ncnc2c1ncn2/C=C1\\C[C@@H]1[C@@H](O)CO", "CC50", "µM", 50.6]
]}

query: CC50 for Nc1nc2c(ncn2/C=C2/C[C@@H]2[C@H](O)CO)c(=O)[nH]1 ?
result: 54

###

Recorded pEC50 by entry
System: Human betaherpesvirus 5
Assay: Antiviral activity against Human cytomegalovirus Towne infected in human foreskin fibroblast cells by plaque reduction assay
Format: functional, organism-based
Details: Human betaherpesvirus 5, Towne
pEC50: −log10 of the molar value.

Worked examples follow.
{"columns": ["smiles.data", "system.under.test", "pEC50"],
 "data": [
  ["Nc1nc2c(ncn2/C=C2/C[C@H]2[C@@H](O)CO)c(=O)[nH]1", "Human betaherpesvirus 5", 5.17],
  ["Nc1nc2c(ncn2/C=C2\\C[C@@H]2[C@@H](O)CO)c(=O)[nH]1", "Human betaherpesvirus 5", "< 4.00"],
  ["Nc1nc2c(ncn2/C=C2/C[C@@H]2[C@@H](O)CO)c(=O)[nH]1", "Human betaherpesvirus 5", "< 4.00"]
]}

query: pEC50 for Nc1ncnc2c1ncn2/C=C1/C[C@H]1[C@H](O)CO ?
result: < 4.00

query: pEC50 for Nc1nc2c(ncn2/C=C2\C[C@H]2[C@H](O)CO)c(=O)[nH]1 ?
result: < 4.00

query: pEC50 for Nc1ncnc2c1ncn2/C=C1\C[C@H]1[C@H](O)CO ?
result: < 4.00

query: pEC50 for Nc1ncnc2c1ncn2/C=C1\C[C@H]1[C@@H](O)CO ?
result: < 4.00

query: pEC50 for Nc1nc2c(ncn2/C=C2\C[C@H]2[C@@H](O)CO)c(=O)[nH]1 ?
result: < 4.00

query: pEC50 for Nc1nc2c(ncn2/C=C2/C[C@@H]2[C@H](O)CO)c(=O)[nH]1 ?
result: < 4.00

query: pEC50 for Nc1ncnc2c1ncn2/C=C1\C[C@@H]1[C@H](O)CO ?
result: < 4.00

query: pEC50 for Nc1ncnc2c1ncn2/C=C1/C[C@@H]1[C@H](O)CO ?
result: < 4.00

query: pEC50 for Nc1nc2c(ncn2/C=C2\C[C@@H]2[C@H](O)CO)c(=O)[nH]1 ?
result: < 4.00

query: pEC50 for Nc1nc2c(ncn2/C=C2/C[C@H]2[C@H](O)CO)c(=O)[nH]1 ?
result: < 4.00

query: pEC50 for Nc1nc2c(ncn2/C=C2/CC2(CO)CO)c(=O)[nH]1 ?
result: 6.34
